Values from patent US7294636B2

Here the recorded IC50 is given for each entry.
target: recombinant human CCR5 receptor (Homo sapiens, UniProt P51681); assay: in vitro radioligand binding assay, inhibition of MIP-1α binding (scintillation proximity); settings: displacement of 0.1 nM iodinated MIP-1α; membranes from Chinese hamster ovary cells expressing CCR5; negative log10 of IC50 (M); average if tested more than once
Sequence (P51681 whole entry): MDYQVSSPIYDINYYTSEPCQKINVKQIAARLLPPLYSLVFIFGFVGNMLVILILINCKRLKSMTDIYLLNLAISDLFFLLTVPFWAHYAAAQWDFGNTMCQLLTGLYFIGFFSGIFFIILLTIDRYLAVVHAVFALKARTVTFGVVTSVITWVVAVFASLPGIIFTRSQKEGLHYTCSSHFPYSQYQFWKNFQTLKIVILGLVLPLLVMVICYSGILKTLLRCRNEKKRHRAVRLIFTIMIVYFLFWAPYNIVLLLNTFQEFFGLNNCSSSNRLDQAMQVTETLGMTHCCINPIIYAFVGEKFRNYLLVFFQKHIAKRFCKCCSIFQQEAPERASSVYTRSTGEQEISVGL
Give a bare numeral; the unit M is implied.

Below are worked cases with known answers.
cpd_smiles=CS(=O)(=O)c1ccc([C@@H](CCN2CCC(n3cnc4cc(S(C)(=O)=O)ccc43)CC2)c2ccc(Cl)s2)cc1 experimental_result=2e-08
cpd_smiles=Cc1nnc(C(C)C)n1C1CCN(CC[C@H](c2ccc(S(C)(=O)=O)cc2)c2cc(F)cc(F)c2)CC1 experimental_result=2e-08
cpd_smiles=CS(=O)(=O)c1ccc([C@@H](CCN2CCC(n3cnc4cc(S(C)(=O)=O)ccc43)CC2)c2ccccc2)cc1 experimental_result=3.98e-09
cpd_smiles=CS(=O)(=O)c1ccc([C@@H](CCN2CCC(n3cnc4cc(S(C)(=O)=O)ccc43)CC2)c2cc(Cl)cs2)cc1 experimental_result=2e-08
cpd_smiles=CS(=O)(=O)c1ccc([C@@H](CCN2CCC(n3cnc4cc(S(C)(=O)=O)ccc43)CC2)c2ccsc2)cc1 experimental_result=1e-08

Next up:
Request: Consider the compound shown here: CS(=O)(=O)c1ccc([C@@H](CCN2CCC(c3nc(Cc4ccccc4)no3)CC2)c2ccccc2)cc1 What is its recorded IC50?
Result: 1.58e-08
